Test system: Enterococcus faecium
assay-explanation: Antibacterial activity against vancomycin-resistant Enterococcus faecium ATCC 49624
Assay type: functional
reported-endpoint: MIC (µg/mL)
Give bare numbers, in µg/mL.

>>> reading("CC1(C)CC(Nc2nc(Nc3cccc(F)c3)nc(-c3cccc(F)c3)n2)CC(C)(C)N1")
4

# return recorded MIC for entry "NCCCCCNc1nc(Nc2cccc(F)c2)nc(-c2cccc(F)c2)n1" 4

###

Task for the reader: assign each of the following compounds its reported MIC.
System: Enterococcus faecium
assay-explanation: Antibacterial activity against vancomycin-resistant Enterococcus faecium ATCC 49624
Format: functional
Give bare numbers, in µg/mL.

Examples with their reported MIC follow.
>>> reading("NCC1CCC(CNc2nc(Nc3cccc(F)c3)nc(-c3cccc(F)c3)n2)CC1 (configuration not stated)")
8
>>> reading("NCCN(CCN)c1nc(NCCc2ccc(O)cc2)nc(-c2ccc(F)cc2)n1")
16
>>> reading("NCCCCCCNc1nc(Nc2cccc(F)c2)nc(-c2cccc(F)c2)n1")
4

Give MIC for each listed item.
1. NCCCCCNc1nc(NCCc2ccc(O)cc2)nc(Nc2ccc(F)cc2)n1
2. NCc1ccc(CNc2nc(Nc3cccc(F)c3)nc(-c3cccc(F)c3)n2)cc1
3. NCC1(CNc2nc(Nc3cccc(F)c3)nc(-c3cccc(F)c3)n2)CCCC1

1: 128; 2: 8; 3: 32

Give MIC for each listed item.
1. NCCCCCNc1nc(Nc2cccc(F)c2)nc(-c2cccc(O)c2)n1
2. NCCCCCNc1nc(Nc2cccc(F)c2)nc(-c2cc(F)cc(F)c2)n1
3. CC(C)(CN)CNc1nc(Nc2cccc(F)c2)nc(-c2cccc(F)c2)n1
4. NCCN(CCN)c1nc(NCCc2ccc(O)cc2)nc(-c2cccc(F)c2)n1
5. NCCCCCNc1nc(Nc2cccc(F)c2)nc(-c2cccnc2)n1

[8, 8, 8, 8, 16]

Give MIC for each listed item.
1. NCCCCCNc1nc(Nc2cccc(F)c2)nc(-c2cncc(F)c2)n1
2. NCCCCCCCNc1nc(Nc2cccc(F)c2)nc(-c2cccc(F)c2)n1
3. NCCCCCNc1nc(Nc2cccc(C(F)(F)F)c2)nc(-c2cccc(F)c2)n1
4. NCCCCCNc1nc(-c2cccc(F)c2)nc(-c2cccc(F)c2)n1
5. Fc1cccc(Nc2nc(NC3CCCNC3)nc(-c3cccc(F)c3)n2)c1 (configuration not stated)

[32, 16, 4, 8, 4]

###

Task for the reader: assign each of the following molecules its reported MIC.
Tested on: Staphylococcus epidermidis
assay-explanation: Antibacterial activity against methicillin-sensitive Staphylococcus epidermidis ATCC 155-U
Assay type: functional
One number for each entry, in µg/mL.

>>> reading("NCCCCCNc1nc(Nc2cccc(F)c2)nc(-c2ccccc2F)n1")
4
>>> reading("NCCCCCNc1nc(Nc2cccc(F)c2)nc(-c2cccc(F)c2)n1")
8
>>> reading("NCCN(CCN)c1nc(NCCc2ccc(O)cc2)nc(-c2ccc(F)cc2)n1")
8
>>> reading("CC1(C)CC(Nc2nc(Nc3cccc(F)c3)nc(-c3cccc(F)c3)n2)CC(C)(C)N1")
2

Give MIC for each listed item.
1. NCCCCCNc1nc(Nc2cccc(F)c2)nc(-c2cncc(F)c2)n1
2. NCCCCCNc1nc(NCCc2ccc(O)cc2)nc(Nc2ccc(F)cc2)n1
3. NCCN(CCN)c1nc(NCCc2ccc(O)cc2)nc(-c2cccc(F)c2)n1
4. NCCCCCNc1nc(NCCc2ccc(O)cc2)nc(-c2cccc(F)c2)n1
5. NCCCCCNc1nc(Nc2ccc(F)cc2)nc(-c2cccnc2)n1
6. NCCCCCNc1nc(Nc2cccc(C(F)(F)F)c2)nc(-c2cccc(F)c2)n1
7. NCCCCCNc1nc(Nc2cccc(F)c2)nc(-c2cccc(O)c2)n1
8. CC(C)(CN)CNc1nc(Nc2cccc(F)c2)nc(-c2cccc(F)c2)n1

32
64
4
8
16
8
8
2

Give MIC for each listed item.
1. NCCCCCNc1nc(Nc2cccc(F)c2)nc(-c2ccc(F)cc2)n1
2. NCCCCCNc1nc(Nc2ccc(F)cc2)nc(-c2cccc(F)c2)n1
3. NCCCCCNc1nc(Nc2cccc(F)c2)nc(-c2cccnc2)n1
4. NCc1ccc(CNc2nc(Nc3cccc(F)c3)nc(-c3cccc(F)c3)n2)cc1

1. 2
2. 2
3. 8
4. 4

###

System: Staphylococcus epidermidis
assay-explanation: Antibacterial activity against methicillin-sensitive Staphylococcus epidermidis ATCC 155-U
Type: functional
reported-endpoint: MIC (µg/mL)
Answers are plain numbers, in µg/mL.

>>> reading("NCCCCCNc1nc(Nc2cccc(F)c2)nc(-c2cc(F)cc(F)c2)n1")
4
>>> reading("Fc1cccc(Nc2nc(NC3CCCNC3)nc(-c3cccc(F)c3)n2)c1 (configuration not stated)")
2
>>> reading("NCCCCCCCNc1nc(Nc2cccc(F)c2)nc(-c2cccc(F)c2)n1")
8
>>> reading("NCCCCCNc1nc(-c2cccc(F)c2)nc(-c2cccc(F)c2)n1")
2
>>> reading("NCC1CCC(CNc2nc(Nc3cccc(F)c3)nc(-c3cccc(F)c3)n2)CC1 (configuration not stated)")
8
>>> reading("NCCCCCCNc1nc(Nc2cccc(F)c2)nc(-c2cccc(F)c2)n1")
2

Now consider a different molecule.
# return recorded MIC for entry "NCC1(CNc2nc(Nc3cccc(F)c3)nc(-c3cccc(F)c3)n2)CCCC1" 16

###

Tested on: Enterococcus faecium
assay-explanation: Antibacterial activity against vancomycin-resistant Enterococcus faecium ATCC 49624
Format: functional
Task for the reader: assign each of the following molecules its reported MIC.
One number for each entry, in µg/mL.

Examples with their reported MIC follow.
>>> reading("NCCCCCNc1nc(Nc2cccc(F)c2)nc(-c2ccc(F)cc2)n1")
8
>>> reading("NCCCCCNc1nc(Nc2ccc(F)cc2)nc(-c2cccc(F)c2)n1")
8
>>> reading("NCCCCCNc1nc(Nc2cccc(F)c2)nc(-c2ccccc2F)n1")
8

Now consider a different molecule.
# return recorded MIC for entry "NCCCCCNc1nc(NCCc2ccc(O)cc2)nc(-c2cccc(F)c2)n1" 16
